B1: LINE1-full (parent)
chain: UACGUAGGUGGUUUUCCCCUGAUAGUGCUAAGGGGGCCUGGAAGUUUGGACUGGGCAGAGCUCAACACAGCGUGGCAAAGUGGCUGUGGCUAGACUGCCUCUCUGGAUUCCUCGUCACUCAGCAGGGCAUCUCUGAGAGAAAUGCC

Variants of: B1
Assay: self-cleavage, relative activity (ratio to wild type); higher = more cleavage; in vitro, sequencing; the parent is a self-cleaving ribozyme
Please respond with reported self-cleavage for every item in the list.
In your answer, state the number alone without any accompanying words.

Any idea what self-cleavage was measured for U15C A79C ?
1.84

Another variant to check: U29C C146U
1.02

Another variant to check: U45G U132A
0.86

Another variant to check: A42G U47G
0.88

Another variant to check: U39C A121G
1.67

Another variant to check: C3U G58U
0

Another variant to check: U15C U20A
1.12

Another variant to check: A69G C123U
0.45

Another variant to check: G125A U130C
1.69

Another variant to check: U13A G34A
1.13

Another variant to check: C17U U87A
0.11
